These entries and their values trace back to PubChem BioAssay (EPA / NIEHS).

Read-out: Monokine induced gamma interferon (MIG), CXCL9 (gene 4283)
Method description: BSK_hDFCGF_MIG: BioMAP Diversity Plus: hDFCGF Assay for Monokine induced gamma interferon (MIG) Biomarker Activity (AID 2283063)
Condition context: primary human foreskin fibroblasts; actives raise or lower the signal
The source made the active and inactive calls. Rule for the calls: active = hit-call score of the fitted dose curve at least 0.9, where 1 is the maximum; inactive = score below 0.9.
The reply should name one outcome from 1 (active), 0 (inactive)

Below are worked cases with known answers.
>  <Compound>
CCc1c(C(=O)NN2CCCCC2)nn(-c2ccc(Cl)cc2Cl)c1-c1ccc(Br)cc1

>  <Category>
1

$$$$
>  <Compound>
CC1(C)NC(=O)NC1=O

>  <Category>
0

$$$$
>  <Compound>
O=C(O)Cc1ccccc1Nc1c(Cl)cccc1Cl

>  <Category>
0

$$$$
>  <Compound>
COc1cc(-c2nc(NC(=O)c3cc4cc(C)cc(C)c4n3CC(=O)O)sc2CCC2CCCCC2)c(OC)cc1Cl

>  <Category>
1

$$$$
>  <Compound>
Cc1ccccc1Cl

>  <Category>
0

$$$$

Inquiry: Which result was noted for this compound in the test: CC(=O)C(C)=CC1C(C)=CCCC1(C)C (stereo unspecified)
Reply text: 0

Inquiry: Which result was noted for this compound in the test: O=c1c(O)c(-c2ccc(O)c(O)c2)oc2cc(O)cc(O)c12
Reply text: 1

Inquiry: Which result was noted for this compound in the test: O=C(N[C@@H](Cc1ccccc1)[C@@H](O)C(=O)N1C[C@@H](O)[C@@H](O)C1)c1cc2cc(Cl)ccc2[nH]1
Reply text: 0

Inquiry: Which result was noted for this compound in the test: COC(=O)c1ccc(O)cc1
Reply text: 0

Inquiry: Which result was noted for this compound in the test: CCCCc1ccc2c(n1)[C@@H](c1ccc(OC)cc1C[C@H](C)C(=O)O)[C@H](C(=O)O)[C@H]2c1ccc2c(c1)OCO2
Reply text: 0

Inquiry: Which result was noted for this compound in the test: C=CCOC(=O)c1ccccc1C(=O)OCC=C
Reply text: 0
